meta.source: ChEMBL document CHEMBL4811258

Experiment: in vivo
Settings: Sprague-Dawley, rat, po, 17 mg/kg
measurement-type: Tmax at 24 h (h)
Give the number; h is assumed, so skip it.

// query Would you kindly share the measured Tmax at 24 h for Cc1c(C2(c3ccc(C(F)(F)F)nc3)CC2)c[nH]c1C(=O)NC(C)c1nc[nH]n1 (stereo in doubt; form 1) ?
// result 2.5

* * *

Assay: Tmax in Sprague-Dawley rat at 28 mg/kg, po measured up to 24 hrs
Type: ADME, organism-based
Settings: in vivo
measurement-type: Tmax (h)
Give the number; h is assumed, so skip it.

// query Would you kindly share the measured Tmax for Cc1cc(C(C)NC(=O)c2[nH]cc(Cc3ccc(C(F)(F)F)nc3)c2C)no1 (stereo in doubt; form 1) ?
// result 4.3
